Source of measurements: paper PMC6222377

Tested on: E. coli (ATCC 25922)
ASSAY_PROTOCOL: microbe, parasite or virus in culture
Format: cell-based, Escherichia coli
STATED_CONDITIONS: ATCC 25922
Where a SMILES comes first, the peptide text is derived from it.
ATTRIBUTE_MEASURED: MIC E. coli (ATCC 25922) (µg/mL)
State the answer as a number, implicitly in µg/mL.

Req: Fill blank: measured MIC E. coli (ATCC 25922) of the molecule N=C(N)NCCC[C@@H]1NC(=O)[C@H](CCCNC(=N)N)NC(=O)[C@H](CCCNC(=N)N)NC(=O)[C@H](CCCNC(=N)N)NC(=O)[C@H](Cc2c[nH]c3ccccc23)NC(=O)[C@H](Cc2c[nH]c3ccccc23)NC(=O)[C@H](Cc2c[nH]c3ccccc23)NC(=O)[C@H](Cc2c[nH]c3ccccc23)NC(=O)[C@H](Cc2c[nH]c3ccccc23)NC(=O)[C@H](CCCNC(=N)N)NC(=O)[C@H](CCCNC(=N)N)NC(=O)[C@H](CCCNC(=N)N)NC1=O [[R7W5] (17)] (cyclo(RRRRRRRWWWWW)) is ____.
Resp: 64

Req: Try this molecule too: NCCCC[C@@H]1NC(=O)[C@H](CCCCN)NC(=O)[C@H](CCCCN)NC(=O)[C@H](Cc2c[nH]c3ccccc23)NC(=O)[C@H](Cc2c[nH]c3ccccc23)NC(=O)[C@H](Cc2c[nH]c3ccccc23)NC(=O)[C@H](Cc2c[nH]c3ccccc23)NC(=O)[C@H](CCCCN)NC1=O [[K4W4] (15)] (cyclo(KKKKWWWW))
Resp: 16

====

Tested on: E. coli (ATCC 25922)
ASSAY_PROTOCOL: microbe, parasite or virus in culture
Format: cell-based, Escherichia coli
STATED_CONDITIONS: ATCC 25922
Where a SMILES comes first, the peptide text is derived from it. [ ]: non-standard residue; d: D form. Trp(1-Me) = Cn1cc(C[C@H](N)C(=O)O)c2ccccc21
ATTRIBUTE_MEASURED: MIC E. coli (ATCC 25922) (µg/mL)
State the answer as a number, implicitly in µg/mL.

Req: Fill blank: measured MIC E. coli (ATCC 25922) of the molecule Cn1cc(C[C@@H]2NC(=O)[C@H](CCCNC(=N)N)NC(=O)[C@H](CCCNC(=N)N)NC(=O)[C@H](CCCNC(=N)N)NC(=O)[C@H](CCCNC(=N)N)NC(=O)[C@H](Cc3cn(C)c4ccccc34)NC(=O)[C@H](Cc3cn(C)c4ccccc34)NC(=O)[C@H](Cc3cn(C)c4ccccc34)NC2=O)c2ccccc21 [[W(Me)4R4] (13)] (cyclo([Trp(1-Me)][Trp(1-Me)][Trp(1-Me)][Trp(1-Me)]RRRR)) is ____.
Resp: 16

====

System: E. coli (ATCC 25922)
ASSAY_PROTOCOL: microbe, parasite or virus in culture
Assay type: cell-based, Escherichia coli
STATED_CONDITIONS: ATCC 25922
I'd appreciate it if you could supply MIC E. coli (ATCC 25922) values for the items below.

Req: Fill blank: measured MIC E. coli (ATCC 25922) of the substance H-AAAARRRR-OH [A4R4 (2)] is ____.
Resp: >128 µg/mL

Req: Try this substance too: H-FFFFRRRR-OH [F4R4 (3)]
Resp: >128 µg/mL

Req: Try this substance too: H-LLLLRRRR-OH [L4R4 (4)]
Resp: >128 µg/mL

Req: Try this substance too: H-IIIIRRRR-OH [I4R4 (5)]
Resp: >128 µg/mL

Req: Try this substance too: H-RRRRWWWW-OH [R4W4 (1)]
Resp: 64 µg/mL

Req: Try this substance too: H-YYYYRRRR-OH [Y4R4 (6)]
Resp: >128 µg/mL

====

Test system: E. coli (ATCC 25922)
ASSAY_PROTOCOL: microbe, parasite or virus in culture
Type: cell-based, Escherichia coli
STATED_CONDITIONS: ATCC 25922
Where a SMILES comes first, the peptide text is derived from it.
ATTRIBUTE_MEASURED: MIC E. coli (ATCC 25922) (µg/mL)
State the answer as a number, implicitly in µg/mL.

Req: Fill blank: measured MIC E. coli (ATCC 25922) of the compound N=C(N)NCCC[C@@H]1NC(=O)[C@H](CCCNC(=N)N)NC(=O)[C@H](CCCNC(=N)N)NC(=O)[C@H](CCCNC(=N)N)NC(=O)[C@H](Cc2c[nH]c3ccccc23)NC(=O)[C@H](Cc2c[nH]c3ccccc23)NC(=O)[C@H](Cc2c[nH]c3ccccc23)NC(=O)[C@H](Cc2c[nH]c3ccccc23)NC(=O)[C@H](Cc2c[nH]c3ccccc23)NC(=O)[C@H](Cc2c[nH]c3ccccc23)NC(=O)[C@H](CCCNC(=N)N)NC(=O)[C@H](CCCNC(=N)N)NC(=O)[C@H](CCCNC(=N)N)NC1=O [[R7W6] (19)] (cyclo(RRRRRRRWWWWWW)) is ____.
Resp: 64

====

I'd appreciate it if you could supply MIC E. coli (ATCC 25922) values for the items below.
Tested on: E. coli (ATCC 25922)
ASSAY_PROTOCOL: microbe, parasite or virus in culture
Assay type: cell-based, Escherichia coli
STATED_CONDITIONS: ATCC 25922
Where a SMILES comes first, the peptide text is derived from it.

Req: Fill blank: measured MIC E. coli (ATCC 25922) of the compound N=C(N)NCCC[C@H](NC(=O)[C@H](CCCNC(=N)N)NC(=O)[C@H](CCCNC(=N)N)NC(=O)[C@@H](N)CCCNC(=N)N)C(=O)N[C@@H](Cc1c[nH]c2ccccc12)C(=O)N[C@@H](Cc1c[nH]c2ccccc12)C(=O)N[C@@H](Cc1c[nH]c2ccccc12)C(=O)N[C@@H](Cc1c[nH]c2ccccc12)C(=O)N[C@@H](Cc1c[nH]c2ccccc12)C(=O)O is ____.
Resp: 32 µg/mL

Req: Try this compound too: CC(C)C[C@@H]1NC(=O)[C@H](CCCNC(=N)N)NC(=O)[C@H](CCCNC(=N)N)NC(=O)[C@H](CCCNC(=N)N)NC(=O)[C@H](CCCNC(=N)N)NC(=O)[C@H](CC(C)C)NC(=O)[C@H](CC(C)C)NC(=O)[C@H](CC(C)C)NC1=O [[L4R4] (12)] (cyclo(LLLLRRRR))
Resp: >128 µg/mL

Req: Try this compound too: N=C(N)NCCC[C@@H]1NC(=O)[C@H](CCCNC(=N)N)NC(=O)[C@H](CCCNC(=N)N)NC(=O)[C@H](Cc2ccccc2)NC(=O)[C@H](Cc2ccccc2)NC(=O)[C@H](Cc2ccccc2)NC(=O)[C@H](Cc2ccccc2)NC(=O)[C@H](CCCNC(=N)N)NC1=O [[F4R4] (9)] (cyclo(RRRRFFFF))
Resp: >128 µg/mL

====

System: E. coli (ATCC 25922)
ASSAY_PROTOCOL: microbe, parasite or virus in culture
Assay type: cell-based, Escherichia coli
STATED_CONDITIONS: ATCC 25922
Where a SMILES comes first, the peptide text is derived from it. [ ]: non-standard residue; d: D form.
I'd appreciate it if you could supply MIC E. coli (ATCC 25922) values for the items below.
State the answer as a number, implicitly in µg/mL.

Req: # value lookup — system E. coli (ATCC 25922), readout MIC E. coli (ATCC 25922), item N=C(N)NCCC[C@H]1NC(=O)[C@H](Cc2c[nH]c3ccccc23)NC(=O)[C@H](Cc2c[nH]c3ccccc23)NC(=O)[C@H](Cc2c[nH]c3ccccc23)NC(=O)[C@H](Cc2c[nH]c3ccccc23)NC(=O)[C@@H](CCCNC(=N)N)NC(=O)[C@@H](CCCNC(=N)N)NC(=O)[C@@H](CCCNC(=N)N)NC1=O [[DR4W4] (14)] (cyclo([dR][dR][dR][dR]WWWW))
Resp: 16

Req: Try this compound too: N=C(N)NCCC[C@@H]1NC(=O)[C@H](CCCNC(=N)N)NC(=O)[C@H](CCCNC(=N)N)NC(=O)[C@H](Cc2c[nH]c3ccccc23)NC(=O)[C@H](Cc2c[nH]c3ccccc23)NC(=O)[C@H](Cc2c[nH]c3ccccc23)NC(=O)[C@H](Cc2c[nH]c3ccccc23)NC(=O)[C@H](CCCNC(=N)N)NC1=O [[R4W4] (7)] (cyclo(RRRRWWWW))
Resp: 16
